- System: Escherichia coli TOP10
- METHOD DESCRIPTION: shrunken log2 fold change of peptide-encoding DNA abundance (4.5 h post-induction vs induction); higher = less antimicrobial activity (less host growth inhibition)
- STATED CONDITIONS: time post-induction: 4.5 h; library: site-saturation at positions 5, 18, 19, 20
METRIC: shrunken log2 fold change
Answers are plain numbers.

Sample records with shrunken log2 fold change:
Task: I would be grateful if you could share the reported shrunken log2 fold change for "RRIRCRPPRLPRPRPRPEELPRP" .
Output: 0.249

Task: # get_value(readout='shrunken log2 fold change', item= "RRIRARPPRLPRPRPRPETAPRP" )
Output: 0.236

Task: What measured shrunken log2 fold change goes with "RRIRKRPPRLPRPRPRPHSQPRP" ?
Output: -0.142

Task: Fill in: shrunken log2 fold change of "RRIRQRPPRLPRPRPRPQADPRP" is ___
Output: 0.0769

Task: Which shrunken log2 fold change value is on record for "RRIRRRPPRLPRPRPRPDRSPRP" ?
Output: -0.0169

Below are some sequences; for each one, tell me its shrunken log2 fold change.
1. RRIRWRPPRLPRPRPRPQQTPRP
2. RRIRMRPPRLPRPRPRPPYIPRP
3. RRIRWRPPRLPRPRPRPRKDPRP
4. RRIRPRPPRLPRPRPRPEVPPRP
5. RRIRMRPPRLPRPRPRPNTHPRP
6. RRIRIRPPRLPRPRPRPWPVPRP
7. RRIRQRPPRLPRPRPRPKNDPRP
8. RRIRGRPPRLPRPRPRPHCQPRP

Output:
[0.103, -0.0556, -0.0246, 0.0363, 0.136, -0.0355, -0.379, -0.058]

Please look at the items below and tell me shrunken log2 fold change for each one, in order.
1. RRIRTRPPRLPRPRPRPCHEPRP
2. RRIRWRPPRLPRPRPRPVIGPRP
3. RRIRFRPPRLPRPRPRPFSWPRP

Output:
[-0.0167, 0.183, -0.00262]

* * *

Record form. Attribute: shrunken log2 fold change. Fill in for each entry.
- Tested on: Escherichia coli TOP10
- METHOD DESCRIPTION: shrunken log2 fold change of peptide-encoding DNA abundance (4.5 h post-induction vs induction); higher = less antimicrobial activity (less host growth inhibition)
- STATED CONDITIONS: time post-induction: 4.5 h; library: site-saturation at positions 5, 18, 19, 20

Reference set (3 entries):
Task: Record request: shrunken log2 fold change value, item "RRIRNRPPRLPRPRPRPVWDPRP"
Output: 0.325

Task: Fill in: shrunken log2 fold change of "RRIRCRPPRLPRPRPRPNWVPRP" is ___
Output: -0.279

Task: Any idea what shrunken log2 fold change was measured for "RRIRQRPPRLPRPRPRPEEIPRP" ?
Output: 0.0447

Read the next record carefully.
Task: # query: shrunken log2 fold change of entry "RRIRHRPPRLPRPRPRPEPRPRP"
Output: 0.137

* * *

- Tested on: Escherichia coli TOP10
- METHOD DESCRIPTION: shrunken log2 fold change of peptide-encoding DNA abundance (4.5 h post-induction vs induction); higher = less antimicrobial activity (less host growth inhibition)
- STATED CONDITIONS: time post-induction: 4.5 h; library: site-saturation at positions 5, 18, 19, 20
Response key: t means shrunken log2 fold change >= -0.1; f means shrunken log2 fold change < -0.1.

Task: Determine whether this sequence has shrunken log2 fold change no lower than -0.1: "RRIRDRPPRLPRPRPRPIIVPRP"
Output: t

Task: Answer whether shrunken log2 fold change of "RRIRLRPPRLPRPRPRPDFMPRP" is greater than or equal to -0.1.
Output: f

Task: Has "RRIRRRPPRLPRPRPRPIWDPRP" a recorded shrunken log2 fold change greater than or equal to -0.1?
Output: t

Task: Say whether "RRIRHRPPRLPRPRPRPLCTPRP" shows shrunken log2 fold change of -0.1 or more.
Output: f

Task: Does "RRIRFRPPRLPRPRPRPCNGPRP" have a reported shrunken log2 fold change of at least -0.1?
Output: f

Task: Confirm if shrunken log2 fold change reported for the sequence "RRIRMRPPRLPRPRPRPETNPRP" is -0.1 or above.
Output: t

***
Task: API: above_or_equal(metric=shrunken log2 fold change, cutoff=-0.1) for item "RRIRERPPRLPRPRPRPMHIPRP"
Output: f

Task: Identify whether the reported shrunken log2 fold change of the following sequence is -0.1 or greater: "RRIRTRPPRLPRPRPRPLFFPRP"
Output: f

Task: Please check the record "RRIRFRPPRLPRPRPRPHRMPRP" and state if its shrunken log2 fold change is at or above -0.1.
Output: f

Task: Hi, just wondering whether "RRIRSRPPRLPRPRPRPAIGPRP" shows shrunken log2 fold change of -0.1 or higher.
Output: t

Task: Exam item: decide whether the reported shrunken log2 fold change for "RRIRHRPPRLPRPRPRPMPCPRP" is at least -0.1.
Output: f

* * *

Would you mind telling me the reported shrunken log2 fold change of each entry?
- Tested on: Escherichia coli TOP10
- METHOD DESCRIPTION: shrunken log2 fold change of peptide-encoding DNA abundance (4.5 h post-induction vs induction); higher = less antimicrobial activity (less host growth inhibition)
- STATED CONDITIONS: time post-induction: 4.5 h; library: site-saturation at positions 5, 18, 19, 20
Numbers only.

Answered cases to consult:
Task: Could you share which shrunken log2 fold change value was measured for "RRIRLRPPRLPRPRPRPSELPRP" ?
Output: -0.195

Task: I have this sequence here, "RRIRTRPPRLPRPRPRPKLFPRP" , and I need its recorded shrunken log2 fold change.
Output: -0.0805

Task: Which shrunken log2 fold change reading was recorded for the sequence "RRIRVRPPRLPRPRPRPTTGPRP" ?
Output: 0.141

Task: Query (sequence): "RRIRDRPPRLPRPRPRPESLPRP" ; field requested: shrunken log2 fold change
Output: 1.01

Task: Using the record for "RRIRGRPPRLPRPRPRPSRVPRP" , report its shrunken log2 fold change.
Output: 0.61

Quick one: give me shrunken log2 fold change for each item below, same order please.
1. RRIRLRPPRLPRPRPRPTLLPRP
2. RRIRERPPRLPRPRPRPDCDPRP
3. RRIRTRPPRLPRPRPRPDQLPRP

Output:
0.0589
-0.121
-0.0381

* * *

- Test system: Escherichia coli TOP10;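 also: peptides expressed intracellularly from a pBAD plasmid library in pooled LB shake-flask culture, induced with 0.3% L-arabinose, DNA abundance read by NGS, three biological replicates, DESeq2 with apeglm shrinkage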
- METHOD DESCRIPTION: shrunken log2 fold change of peptide-encoding DNA abundance (4.5 h post-induction vs induction); higher = less antimicrobial activity (less host growth inhibition)
- STATED CONDITIONS: time post-induction: 4.5 h; library: site-saturation at positions 5, 18, 19, 20
METRIC: shrunken log2 fold change
One number for each entry.

Solved entries:
Task: Reported shrunken log2 fold change, sequence "RRIRDRPPRLPRPRPRPWWCPRP" : ____
Output: -0.00632

Task: Name the reported shrunken log2 fold change value associated with the sequence "RRIRERPPRLPRPRPRPPLIPRP"
Output: -0.435

Task: Sample "RRIRRRPPRLPRPRPRPWIIPRP" — what was its shrunken log2 fold change?
Output: -0.021

Task: Requested field: shrunken log2 fold change. Item: "RRIRFRPPRLPRPRPRPGIDPRP"
Output: -0.0216

Task: Which shrunken log2 fold change value belongs to "RRIRRRPPRLPRPRPRPITAPRP" ?
Output: 0.148

Please supply shrunken log2 fold change for each of the following items, keeping them in order.
1. RRIRRRPPRLPRPRPRPQMIPRP
2. RRIRDRPPRLPRPRPRPGPYPRP
3. RRIRERPPRLPRPRPRPHNCPRP
4. RRIRARPPRLPRPRPRPPKEPRP
5. RRIRVRPPRLPRPRPRPMQAPRP

Output:
1: -0.0521; 2: -0.079; 3: -0.417; 4: 0.818; 5: -0.0023

Hey, quick one: what's shrunken log2 fold change for each of these?
1. RRIRHRPPRLPRPRPRPPFRPRP
2. RRIRTRPPRLPRPRPRPWEGPRP
3. RRIRDRPPRLPRPRPRPFYHPRP
4. RRIRIRPPRLPRPRPRPAHTPRP
5. RRIRDRPPRLPRPRPRPWPRPRP
6. RRIRLRPPRLPRPRPRPKYWPRP
7. RRIRFRPPRLPRPRPRPMGWPRP

Output:
[0.141, 0.0154, -0.124, -0.588, 0.211, -0.131, 0.0642]

Hi team, please reply with shrunken log2 fold change for each item in this list.
1. RRIRMRPPRLPRPRPRPLPNPRP
2. RRIRYRPPRLPRPRPRPSQWPRP
3. RRIRARPPRLPRPRPRPKYKPRP
4. RRIRERPPRLPRPRPRPVDLPRP
5. RRIRLRPPRLPRPRPRPWQNPRP

Output:
0.098
-0.162
-0.31
-0.103
-0.195
